Catalogue of compounds with associated GI50
- System: HOP-18
- assayNotes: NCI tumour cell line growth inhibition, 48 h
Activity calls are given as the source filed them. Rule as the data show it: active = GI50 up to about 1.1 µM and inactive = higher.

- Cc1cc(O)nc(NN2C(Cl)C(=O)C2c2ccccc2O)n1 (centres undefined): 1.6 µM (inactive)
- O=C(c1ccc(Cl)cc1Cl)C1[C@H]2C(=O)N(c3ccc(Cc4ccc(N5C(=O)[C@@H]6ON(c7ccccc7)C(C(=O)c7ccc(Cl)cc7Cl)[C@@H]6C5=O)cc4)cc3)C(=O)[C@H]2ON1c1ccccc1 (some centres undefined): > 50 µM (inactive)

Sample `COC(=O)c1c/c(=N\NC(=O)CC(=O)Nc2ccccc2OC)c2ccccc2o1` — what was its GI50?
15.2 µM (inactive)

Sample `CN1Cc2c(nc(-c3ccc(Br)cc3)c[n+]2[O-])N(C)C1` — what was its GI50?
> 100 µM (inactive)

----------
- System: SK-MEL-2
- assayNotes: NCI tumour cell line growth inhibition, 48 h
The source made the active and inactive calls. Cut-off read from the data, not from the text of the source: active = GI50 up to about 1.1 µM and inactive = higher.
Entry note: the call must match one of active, inactive

Consider the worked cases shown below.
• CCOC(=O)CCC(NC(=O)c1ccc(/N=C/c2nc3cc(C(F)(F)F)ccc3nc2-c2ccccc2)cc1)C(=O)OCC (stereo not given) = inactive
• N#CC(C#N)=NNc1ccc2cn[nH]c2c1 = inactive
• CN1C(=O)C(O)CC1c1cccc(F)c1 (stereo not given) = inactive
• COc1cc(/C=C2\NC(=O)N(/C=C3\C(=O)Oc4ccccc4C3=O)C2=O)ccc1O = inactive
• N#CC(C(=O)CCC(=O)C(C#N)c1ccccc1)c1ccccc1 (stereo not given) = inactive
• C=C1C(=O)O[C@@H]2C[C@@H](C)[C@@H]3C=CC(=O)[C@@]3(C)[C@@H](OC(=O)CC(=O)O[C@H]3[C@@H]4C(=C)C(=O)O[C@@H]4C[C@@H](C)[C@@H]4C=CC(=O)[C@]43C)[C@H]12 = active
• CCOC(=O)c1c(NS(=O)(=O)c2ccc(Br)cc2)sc2c1CCCC2 = inactive
• CC1CCc2sc3nc(S)n(-c4ccccc4)c(=O)c3c2C1 (stereo not given) = inactive

Hi, do you know how O=C1CC(n2ccnc2)c2c(Cl)sc(Cl)c21 (stereo not given) came out in this test?
inactive

Hi, do you know how `[N-]=[N+]=Nc1cc(=O)oc2ccccc12` came out in this test?
inactive

Hi, do you know how `COc1ccc2ccccc2c1C1=NC(C)(C)CO1` came out in this test?
inactive

Hi, do you know how `CCCCCCCCCCCCCCCCOc1ccc(/C=C/C2=[N+](CCCl)CCO2)cc1` came out in this test?
inactive

----------
- Tested on: DU-145
- assayNotes: NCI tumour cell line growth inhibition, 48 h
The source made the active and inactive calls. Cut-off read from the data, not from the text of the source: active = GI50 up to about 1.1 µM and inactive = higher.
Catalogue of molecules with associated GI50

Below: 4 molecules and their reported GI50.
- CSc1nc(SC)c2c(C)c(Br)[nH]c2n1: > 100 µM (inactive)
- COc1ccc(-c2cc(-c3ccc(C)cc3)n(C3OC(COC(C)=O)C(OC(C)=O)C(OC(C)=O)C3OC(C)=O)c(=S)c2C#N)cc1 (stereo not given): > 100 µM (inactive)
- CCN(CC)c1ccc2cc(C(=O)Nc3ccccc3OC)c(=N)oc2c1: 28.2 µM (inactive)
- COC(=O)c1ccc(OCc2ccc3nc(-c4ccccc4)c(Cl)nc3c2)cc1: > 100 µM (inactive)

Sample `Cc1ccc([N+](=O)[O-])cc1S(=O)(=O)Nc1ccc(C(=O)/C=C/c2cccs2)cc1` — what was its GI50?
23.3 µM (inactive)

Sample O=C1/C(=C\c2cccc(Oc3ccccc3)c2)SC(c2ccccc2)N1c1ccc(Cl)cc1 (stereo not given) — what was its GI50?
65.8 µM (inactive)

Values from ChEMBL document CHEMBL1201862
